Values were extracted from PubChem BioAssay AID1845207.

system: NCI-H1876 tumor spheroid viability; assay: Anticancer human tumor NCI-H1876 cell line growth inhibition; details: second compound 0.003 µM; first compound 0.0949 µM; hits give low values; spheroids with HUVEC and MSC;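 also: spheroids exposed to compounds for seven days before the viability read; percent of DMSO vehicle control viability so 100% = vehicle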
Measured viability, T/C of individual entries
Expressed in %, but write only the number.

# example entries with known answers
{"compound": "Cc1sc2c(c1C)C(c1ccc(Cl)cc1)=NC(CC(=O)Nc1ccc(O)cc1)c1nnc(C)n1-2 (stereo not drawn) + COc1cc2c(cc1O)CCNC21CSC2c3c(OC(C)=O)c(C)c4c(c3C(COC1=O)N1C(O)C3Cc5cc(C)c(OC)c(O)c5C(C21)N3C)OCO4", "viability, T/C (%)": 0.51}
{"compound": "Cn1ncnc1[C@H]1c2n[nH]c(=O)c3cc(F)cc(c23)N[C@@H]1c1ccc(F)cc1 + COc1cc2c(cc1O)CCNC21CSC2c3c(OC(C)=O)c(C)c4c(c3C(COC1=O)N1C(O)C3Cc5cc(C)c(OC)c(O)c5C(C21)N3C)OCO4", "viability, T/C (%)": 0.45}

Item: Cc1sc2c(c1C)C(c1ccc(Cl)cc1)=NC(CC(=O)Nc1ccc(O)cc1)c1nnc(C)n1-2 (stereo not drawn) + CC[C@@]1(O)C(=O)OCc2c1cc1n(c2=O)Cc2cc3c(CN(C)C)c(O)ccc3nc2-1 | viability, T/C: 25.6

====

System: NCI-H1876 tumor spheroid viability
Experiment: Anticancer human tumor NCI-H1876 cell line growth inhibition; active = viability on the fitted dose curve at most 10% of control; inactive = the rest;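 also: spheroids exposed to compounds for seven days before the viability read; percent of DMSO vehicle control viability so 100% = vehicle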
Conditions: second compound 94.9 pM; first compound 0.316 µM; spheroids with HUVEC and MSC
Description: Multicellular complex tumor spheroid response to DNA repair inhibitors in combination with DNA-damaging drugs This study explores the anticancer activities of DNA-damaging drugs and inhibitors of DNA damage repair, both as single agents and in combinations. […] Twenty-six patient-derived or established malignant cell lines were evaluated representing sarcoma, melanoma, small cell lung cancer (SCLC), non-small cell lung cancer (NSCLC), as well as bladder, ovarian and pancreatic cancers. […]
Pick one: active, inactive

{"compound": "Cc1cc(C)c(CNC(=O)c2cc(-c3ccc(CN4CCOCC4)cc3)cc3c2cnn3C2CCCC2)c(=O)[nH]1 + COc1cc2c(cc1O)CCNC21CSC2c3c(OC(C)=O)c(C)c4c(c3C(COC1=O)N1C(O)C3Cc5cc(C)c(OC)c(O)c5C(C21)N3C)OCO4", "groupLabel": "inactive"}
{"compound": "[2H]c1nc(C)nc([2H])c1-c1cc(NC[C@@H](C)c2cccc3c(C(=O)NC)ccnc23)ncn1 + COc1cc2c(cc1O)CCNC21CSC2c3c(OC(C)=O)c(C)c4c(c3C(COC1=O)N1C(O)C3Cc5cc(C)c(OC)c(O)c5C(C21)N3C)OCO4", "groupLabel": "inactive"}
{"compound": "COc1ccc([C@@H](O)c2cc(-c3ncnc4cc(N5CCOCC5)ccc34)c(F)cc2Cl)nn1 + COc1cc2c(cc1O)CCNC21CSC2c3c(OC(C)=O)c(C)c4c(c3C(COC1=O)N1C(O)C3Cc5cc(C)c(OC)c(O)c5C(C21)N3C)OCO4", "groupLabel": "inactive"}
{"compound": "CC(C)n1c(=O)n(C)c2cnc3cc(F)c(-c4ccc(OCCCN5CCCCC5)nc4)cc3c21 + COc1cc2c(cc1O)CCNC21CSC2c3c(OC(C)=O)c(C)c4c(c3C(COC1=O)N1C(O)C3Cc5cc(C)c(OC)c(O)c5C(C21)N3C)OCO4", "groupLabel": "inactive"}
{"compound": "CC1COCCN1c1cc(-c2ccnn2C)c2ccnc(-c3ccn[nH]3)c2n1 (stereo unspecified) + COc1cc2c(cc1O)CCNC21CSC2c3c(OC(C)=O)c(C)c4c(c3C(COC1=O)N1C(O)C3Cc5cc(C)c(OC)c(O)c5C(C21)N3C)OCO4", "groupLabel": "active"}

Task: For COc1cc(C)[nH]c(=O)c1CN1CCc2c(Cl)cc(C(OC)C3COC3)c(Cl)c2C1=O (stereo unspecified) + COc1cc2c(cc1O)CCNC21CSC2c3c(OC(C)=O)c(C)c4c(c3C(COC1=O)N1C(O)C3Cc5cc(C)c(OC)c(O)c5C(C21)N3C)OCO4 , which call appears in the assay record?
Output: inactive
